Origin of measurements: ChEMBL document CHEMBL1909542

Molecular target: Acrosin (Homo sapiens, UniProt P10323)
Sequence (P10323 20-42 limits assumed): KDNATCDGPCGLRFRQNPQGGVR
Sequence (P10323 43-343 limits assumed): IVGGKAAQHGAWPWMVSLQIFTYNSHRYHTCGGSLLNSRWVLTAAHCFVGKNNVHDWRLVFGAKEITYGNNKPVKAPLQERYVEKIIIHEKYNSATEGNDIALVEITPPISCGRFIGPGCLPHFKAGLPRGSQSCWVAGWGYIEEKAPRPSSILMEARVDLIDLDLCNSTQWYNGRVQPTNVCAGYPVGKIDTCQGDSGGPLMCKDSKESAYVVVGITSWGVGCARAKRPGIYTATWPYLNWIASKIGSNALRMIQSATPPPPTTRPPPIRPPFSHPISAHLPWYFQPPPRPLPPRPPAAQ
Experiment: Inhibition of acrosin activity in human spermatozoa using N-alpha-benzoyl-DL-arginine para-nitroanilide-HCI as a substrate after 3 hrs by spectrophotometric analysis
TEST_READOUT: IC50 (mM)

Example results:
ITEM_SMILES: Cc1cc(C)c(C(=O)Nc2ccc(S(=O)(=O)N=C(N)N)cc2)c(C)c1
TARGET_OR_TEST_SYSTEM: Acrosin (Homo sapiens, UniProt P10323)
IC50 (mM): 2.45
--
ITEM_SMILES: COc1ccc(OCC(=O)Nc2ccc(S(=O)(=O)N=C(N)N)cc2)cc1
TARGET_OR_TEST_SYSTEM: Acrosin (Homo sapiens, UniProt P10323)
IC50 (mM): 9.84
--
ITEM_SMILES: NC(N)=NS(=O)(=O)c1ccc(NC(=O)CN2CCCCC2)cc1
TARGET_OR_TEST_SYSTEM: Acrosin (Homo sapiens, UniProt P10323)
IC50 (mM): 7.41
--
ITEM_SMILES: NC(N)=NS(=O)(=O)c1ccc(NC(=O)c2ccc(Cl)cc2Cl)cc1
TARGET_OR_TEST_SYSTEM: Acrosin (Homo sapiens, UniProt P10323)
IC50 (mM): 5.63
--
ITEM_SMILES: NC(N)=NS(=O)(=O)c1ccc(NC(=O)c2ccccc2Br)cc1
TARGET_OR_TEST_SYSTEM: Acrosin (Homo sapiens, UniProt P10323)
IC50 (mM): 7.63
--
ITEM_SMILES: Cc1ccc(C(=O)Nc2ccc(S(=O)(=O)N=C(N)N)cc2)cc1
TARGET_OR_TEST_SYSTEM: Acrosin (Homo sapiens, UniProt P10323)
IC50 (mM): 2.06
--
ITEM_SMILES: NC(N)=NS(=O)(=O)c1ccc(NC(=O)c2cccc(C(F)(F)F)c2)cc1
TARGET_OR_TEST_SYSTEM: Acrosin (Homo sapiens, UniProt P10323)
IC50 (mM): 7.05
--
ITEM_SMILES: CC(C)CCOC(=O)C1CCN(CC(=O)Nc2ccc(S(=O)(=O)N=C(N)N)cc2)CC1
TARGET_OR_TEST_SYSTEM: Acrosin (Homo sapiens, UniProt P10323)
IC50 (mM): 2.51

P: CCOc1ccc(C(=O)Nc2ccc(S(=O)(=O)N=C(N)N)cc2)cc1
Q: CCOC(=O)C1CCN(CC(=O)Nc2ccc(S(=O)(=O)N=C(N)N)cc2)CC1
Task: Of the two listed items, P and Q , which carries the larger IC50 figure? Give the label of your selection.
Result: Q

1: CC(C)OC(=O)C1CCN(CC(=O)Nc2ccc(S(=O)(=O)N=C(N)N)cc2)CC1
2: CC1CCN(CC(=O)Nc2ccc(S(=O)(=O)N=C(N)N)cc2)CC1
Task: Dear colleague, could you let me know whether 1 or 2 has the lower recorded IC50? Thanks. Use the label to indicate which entry you chose.
Result: 1

###

Target: UniProtKB P10323
Test: Inhibition of acrosin activity in human spermatozoa using N-alpha-benzoyl-DL-arginine para-nitroanilide-HCI as a substrate after 3 hrs by spectrophotometric analysis
TEST_READOUT: IC50 (mM)

ITEM_SMILES: COC(=O)C1CCN(CC(=O)Nc2ccc(S(=O)(=O)N=C(N)N)cc2)CC1
TARGET_OR_TEST_SYSTEM: UniProtKB P10323
TEST_READOUT: IC50
MEASUREMENT_UNIT: mM
READOUT_VALUE: 9.3
//
ITEM_SMILES: Cc1cccc(OCC(=O)Nc2ccc(S(=O)(=O)N=C(N)N)cc2)c1
TARGET_OR_TEST_SYSTEM: UniProtKB P10323
TEST_READOUT: IC50
MEASUREMENT_UNIT: mM
READOUT_VALUE: 8.92
//
ITEM_SMILES: NC(N)=NS(=O)(=O)c1ccc(NC(=O)c2c(Cl)cccc2Cl)cc1
TARGET_OR_TEST_SYSTEM: UniProtKB P10323
TEST_READOUT: IC50
MEASUREMENT_UNIT: mM
READOUT_VALUE: 5.96

1: NC(N)=NS(=O)(=O)c1ccc(NC(=O)c2cc([N+](=O)[O-])cc([N+](=O)[O-])c2)cc1
2: NC(N)=NS(=O)(=O)c1ccc(NC(=O)c2ccc(Cl)c(Cl)c2)cc1
Task: Select one: 1 or 2 . Criterion: greater recorded IC50. The response must carry the label of the picked entry.
Result: 2
(2: 3.8 mM, 1: 2.5 mM)

###

Target: Acrosin (Homo sapiens)
Assay: Inhibition of acrosin activity in human spermatozoa using N-alpha-benzoyl-DL-arginine para-nitroanilide-HCI as a substrate after 3 hrs by spectrophotometric analysis
TEST_READOUT: IC50 (µmol/mL)

A: NC(N)=NS(=O)(=O)c1ccc(NC(=O)c2c(F)cccc2F)cc1
B: COC(=O)c1ccc(OC(=O)c2ccc(NC(=N)N)cc2)cc1.CS(=O)(=O)O
C: CCCOC(=O)C1CCN(CC(=O)Nc2ccc(S(=O)(=O)N=C(N)N)cc2)CC1
Task: Which order do these fall in by IC50? Give them lowest to highest. Returns: the labels arranged in the requested order.
Result: B, C, A
(B: 0.027 µmol/mL, C: 3.31 µmol/mL, A: 7.18 µmol/mL)

I: NC(N)=NS(=O)(=O)c1ccc(NC(=O)COc2ccc(Cl)cc2)cc1
II: NC(N)=NS(=O)(=O)c1ccc(NC(=O)COc2ccccc2)cc1
III: NC(N)=NS(=O)(=O)c1ccc(NC(=O)c2ccc(CCl)cc2)cc1
Task: Please put the entries in order of rising IC50. // ordering of labels required in reply
Result: II, III, I
(II: 2.3 µmol/mL, III: 3.84 µmol/mL, I: 9.35 µmol/mL)

###

Target: Acrosin (Homo sapiens, UniProt P10323)
Test: Inhibition of acrosin activity in human spermatozoa using N-alpha-benzoyl-DL-arginine para-nitroanilide-HCI as a substrate after 3 hrs by spectrophotometric analysis
TEST_READOUT: IC50 (mM)

ITEM_SMILES: NC(N)=NS(=O)(=O)c1ccc(NC(=O)c2cccc(Cl)c2)cc1
IC50 (mM): 7
//
ITEM_SMILES: Cc1ccc(OCC(=O)Nc2ccc(S(=O)(=O)N=C(N)N)cc2)cc1
IC50 (mM): 8.98
//
ITEM_SMILES: CCCCOC(=O)C1CCN(CC(=O)Nc2ccc(S(=O)(=O)N=C(N)N)cc2)CC1
IC50 (mM): 9.5
